- test name: soluble on expression in E. coli; label from the status in PepcDB or PDB records
property name: soluble on expression in E. coli

Solved entries:
{"entry sequence": "MGSDKIHHHHHHMKCLLCGQTMKTVLTFSSLLLLRNDDSCLCSDCDSTFERIGEENCPNCMKTELSTKCQDCQLWCKEGVEVSHRAIFTYNQAMKDFFSRYKFDGDFLLRKVFASFLSEELKKYKEYQFVVIPLSPDRYANRGFNQVEGLVEAAGFEYLDLLEKREERASSSKNRSERLGTELPFFIKSGVTIPKKILLIDDIYTTGATINRVKKLLEEAGAKDVKTFSLVR", "soluble on expression in E. coli": "not soluble"}
{"entry sequence": "MEKRNIQVTRHFVCADQLQQISETVIACLGQEDLITISGGLGPISDDKTRDAVAKAVRQPLFHHEDVWQTIKGQLGWLGSTPDSNNARQALFPETAKVLDNPTGTAPGFYLSCGESILVILTGSLTQAFALLENYLEHGEKKYSSVSRARYAWILIGIDESAIAHWVDCQLANELFERHFYGKALMFSYNWLASHQRFWLSI", "soluble on expression in E. coli": "not soluble"}
{"entry sequence": "MGHHHHHHSHGTRMDHRSDLVFLADLRPEEIRYRLQHYFKFLFVREPLERLLSAYRNKFGEIREYQQRYGAEIVRRYRAGAGPSPAGDDVTFPEFLRYLVDEDPERMNEHWMPVYHLCQPCAVHYDFVGSYERLEADANQVLEWVRAPPHVRFPARQAWYRPASPESLHYHLCSAPRALLQDVLPKYILDFSLFAYPLPNVTKEACQQ", "soluble on expression in E. coli": "not soluble"}
{"entry sequence": "MNIYTDKKVVAVGGGHGLGRMLAALKDFGSNATGIVATTDNGGSTGRIRHCQGGIAWGDTRNCINQLITEPSISSMMFEYRFKGTGELDGHNLGNLMLTALDNLSVRPLDAINLIRNMLKVDVNILPMSEHPSDLSALSVNGQWVTGETNVDEMETDLRRLDLSPEVPATKEAVTALAEADAIILGPGSFLTSIMPPLLLPELGKAIAANRKAKVIFVANLSPEYGPAGRMSMAQKLEWCERACQGRRIDVVLAEETDQKVLEQWNVVTEPLASTNRDWRHDRDKLKAAIENQLLTKLEHHHHHH", "soluble on expression in E. coli": "soluble"}
{"entry sequence": "MAHHHHHHMRRSSMKFGLRQILSEELGKAAIFLRFKANEYIASTARACQTLTGAETNPEQANKRRKHRQVYEEILRQRQQVAQEAARRAMEGKSLRERLMASASAALKGLKEATSTNAGALALLQHCTAAHAAEVAVEQGIDVKSVTMQVEERKTGSQVGSETVVVGYIDAPNTSEEEMMAFAEQLSKKCPMANAMRGKIEWRRANGEVQHNDEQTTGNDNSVGSTSDKAGDAGSIPHGMPGTRYYSHESMRRGAGGVGDGDELHLPGVTKGSGKGPDK", "soluble on expression in E. coli": "soluble"}

Kindly review the next sequence as well.
Entry GMSEENKIGTYQFVAEPFHVDFNGRLTMGVLGNHLLNCAGFHASDRGFGIATLNEDNYTWVLSRLAIELDEMPYQYEKFSVQTWVENVYRLFTDRNFAVIDKDGKKIGYARSVWAMINLNTRKPADLLALHGGSIVDYICDEPCPIEKPSRIKVTSNQPVATLTAKYSDIDINGHVNSIRYIEHILDLFPIELYQTKRIRRFEMAYVAESYFGDELSFFCDEVSENEFHVEVKKNGSEVVCRSKVIFE has what soluble on expression in E. coli?
soluble
